System: Human lung adenocarcinoma cell A549
Assay: CCK-8 cell proliferation assay, A549
Type: cell-based
Settings: A549 cells, 72 hrs with drug, CCK-8, OD 450 nm
Experimental: The effect of samples on the proliferation of human tumor cells in vitro was determined by CCK-8 cell proliferation assay. The cells were assayed through a method including the following steps: • 1) The cells were digested, counted, and prepared into a cell suspension in a corresponding culture medium (Table 1) (5×10^4 cells/ml for CFPAC-1 and RPMI 8226, and 3.5×10^4 cells/ml for rest cells). […]
Each entry below carries its reported pIC50.
The meaning of pIC50 here: minus log10 of the concentration in molar units.

N#CN=C(NCCCCCCC1CCN(C(=O)C2CCCS2)C1)Nc1cccnc1 (centres unmarked) [BSS-PC063]
7.16
N#CN=C(NCCCCCC1CCN(C(=O)c2ccco2)C1)Nc1ccncc1 (centres unmarked) [BSS-PC032]
7.59
N#CN=C(NCCCCCCC1CCN(C(=O)c2ccco2)C1)Nc1cccnc1 (centres unmarked) [BSS-PC062]
7.34
N#CN=C(NCCCCCN1CCN(C(=O)c2occc2F)CC1)Nc1ccncc1 [BSS-PC023]
7.38

Here's the next entry for you.
Reported pIC50 for N#CN=C(NCCCCCCC1CCN(C(=O)c2cccs2)C1)Nc1ccncc1 (centres unmarked) [BSS-PC053] : what is it?
7.60

---

Tested on: Human lung adenocarcinoma cell A549
Test: CCK-8 cell proliferation assay, A549
Assay type: cell-based
Conditions: A549 cells, 72 hrs with drug, CCK-8, OD 450 nm
The following compounds are shown together with reported IC50 values.
# unit: nM | format: bare number

COc1cccc(OC)c1C(=O)N1CCC(CCCCCNC(=NC#N)Nc2cccnc2)C1 (centres unmarked)
29

Recorded IC50 for N#CN=C(NCCCCCC1CCN(C(=O)c2cccs2)C1)Nc1cccnc1 (centres unmarked) with Human lung adenocarcinoma cell A549, please?
45

Form field: IC50 recorded for N#CN=C(NCCCCCC1CCN(C(=O)c2ccc[nH]2)C1)Nc1ccncc1 (centres unmarked) with Human lung adenocarcinoma cell A549 (enter value)
51

Given the entry N#CN=C(NCCCCCC1CCN(C(=O)c2sccc2F)C1)Nc1ccncc1 (centres unmarked) , what IC50 was observed with Human lung adenocarcinoma cell A549?
39

// lookup IC50 | system=Human lung adenocarcinoma cell A549 | key= N#CN=C(NCCCCCC1CCN(C(=O)C2Cc3ccccc3O2)C1)Nc1ccncc1 (centres unmarked)
71

---

Tested on: Human lung adenocarcinoma cell A549
Experiment: CCK-8 cell proliferation assay, A549
Assay type: cell-based
Details: A549 cells, 72 hrs with drug, CCK-8, OD 450 nm
IC50 values, listed per item

Check out these entries, answers already filled in.
O=C(/C=C/c1cccnc1)NCCCCC1CCN(C(=O)c2ccccc2)CC1 [FK866, reference compound]
37 nM
N#CN=C(NCCCCCC1CCN(C(=O)c2ccco2)C1)Nc1cccnc1 (stereo not drawn)
51 nM
N#CN=C(NCCCCCCC1CCN(C(=O)c2ccc[nH]2)C1)Nc1cccnc1 (stereo not drawn)
57 nM
COc1cccc(OC)c1C(=O)N1CCC(CCCCCCNC(=NC#N)Nc2ccncc2)C1 (stereo not drawn)
50 nM
N#CN=C(NCCCCCCC1CCN(C(=O)c2ccccc2)C1)Nc1cccnc1 (stereo not drawn)
43 nM
N#CN=C(NCCCCCN1CCN(C(=O)C2CCCN2)CC1)Nc1ccncc1 (stereo not drawn)
67 nM
N#CN=C(NCCCCCCC1CCN(C(=O)c2ccc[nH]2)C1)Nc1ccncc1 (stereo not drawn)
47 nM
N#CN=C(NCCCCCC1CCN(C(=O)c2occc2F)C1)Nc1ccncc1 (stereo not drawn)
42 nM

Now look at this entry.
Request - read-out IC50 | tested on Human lung adenocarcinoma cell A549 | compound N#CN=C(NCCCCCC1CCN(C(=O)C2CCCN2)C1)Nc1ccncc1 (stereo not drawn)
32 nM
